The measurements presented in this section are drawn from patent US11236129B2.

Reported IC50 is given for each of the following molecules.
- experimentalSystem: IL-17RA/IL17RC dimerization induced by IL-17A (Homo sapiens, UniProt Q16552)
- Sequence (Q16552 24-155): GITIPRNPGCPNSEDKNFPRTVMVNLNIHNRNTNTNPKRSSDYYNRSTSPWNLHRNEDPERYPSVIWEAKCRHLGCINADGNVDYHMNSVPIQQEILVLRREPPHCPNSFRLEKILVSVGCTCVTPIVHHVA
- assayDetails: IL-17RA/IL17RC dimerization assay in response to IL-17A (PathHunter Cytokine Receptor Assay)
- Format: cell-based
- conditionSet: IL-17A at EC80; read-out: IC50 in IL-17RA/IL7RC dimerization assay
- Procedure: The peptides of Table 7 were tested for their ability to inhibit the binding of IL-17A to its receptor and the subsequent interaction of IL-17RA and IL17RC. […] In the PathHunter® Cytokine Receptor Assay, one cytokine receptor chain is tagged with a small peptide epitope ProLink (PK) and the other chain is tagged with Enzyme Acceptor (EA). […] This interaction generates an active unit of b-galactosidase, which is detected using a chemiluminescent substrate. […]
Residues, ends and D or L forms follow the SMILES beside them.

See these solved cases before continuing.
- molecule: "CCCCCCCCCC(=O)N[C@H](C(=O)N[C@@H](CCSC)C(=O)N[C@H](C(=O)N[C@H](C(=O)N[C@H](C(=O)N1CCC[C@H]1C(=O)N[C@@H](C)C(=O)N[C@@H](CC(=O)O)C(=O)N[C@@H](CC(C)C)C(=O)N[C@@H](Cc1ccc(O)cc1)C(=O)N[C@@H](CCC(=O)O)C(=O)N[C@@H](Cc1c[nH]c2ccccc12)C(=O)N[C@H](C(=O)N[C@@H](CCC(=O)O)C(=O)N[C@@H](CCC(=O)O)C(N)=O)[C@@H](C)CC)[C@@H](C)CC)[C@@H](C)O)C(C)C)[C@@H](C)CC [BIO-4]"
  IC50: "< 1000 nM"
- molecule: "CC[C@H](C)[C@H](NC(=O)[C@@H](NC(=O)[C@@H](NC(=O)[C@H](Cc1c[nH]cn1)NC(=O)[C@@H](NC(C)=O)C(C)C)C(C)C)[C@@H](C)O)C(=O)N1CCC[C@H]1C(=O)N[C@@H](C)C(=O)N[C@@H](CC(=O)O)C(=O)N[C@@H](CC(C)C)C(=O)N[C@@H](Cc1c[nH]c2ccccc12)C(=O)N[C@@H](CCC(=O)O)C(=O)N[C@@H](Cc1c[nH]c2ccccc12)C(=O)N[C@@H](Cc1ccccc1)C(=O)N[C@@H](CCCNC(=N)N)C(=O)N[C@@H](CCCNC(=N)N)C(N)=O [SEQ ID NO: 121] (Ac-VHVTIPADLWEWFRR-NH2)"
  IC50: "< 500 nM"

Query string: Quick one: IC50 of CC(=O)N[C@H](C(=O)N[C@@H](CCC(=O)O)C(=O)N[C@@H](Cc1ccccc1)C(=O)N[C@@H](CC(N)=O)C(=O)N[C@@H](Cc1ccccc1)C(=O)N1CCC[C@H]1C(=O)N[C@@H](CCC(N)=O)C(=O)N[C@@H](CCC(N)=O)C(=O)N[C@H](C(=O)N[C@@H](Cc1ccc(O)cc1)C(=O)N[C@@H](CCC(=O)O)C(=O)N[C@@H](Cc1c[nH]c2ccccc12)C(=O)N[C@@H](Cc1ccccc1)C(=O)N[C@@H](CC(=O)O)C(=O)N[C@@H](CC(=O)O)C(N)=O)C(C)C)C(C)C [SEQ ID NO: 255] (Ac-VEFNFPQQVYEWFDD-NH2) ?
Result string: < 10000 nM

Query string: Same thing, different molecule: CC[C@H](C)[C@H](NC(C)=O)C(=O)N[C@@H](Cc1c[nH]cn1)C(=O)N[C@H](C(=O)N[C@H](C(=O)N[C@H](C(=O)N1CCC[C@H]1C(=O)N[C@@H](C)C(=O)N[C@@H](CC(=O)O)C(=O)N[C@@H](CC(C)C)C(=O)N[C@@H](Cc1ccc(O)cc1)C(=O)N[C@@H](CC(=O)O)C(=O)N[C@@H](Cc1c[nH]c2ccccc12)C(=O)N[C@H](C(=O)N[C@@H](CC(N)=O)C(=O)N[C@@H](CCCCN)C(N)=O)[C@@H](C)CC)[C@@H](C)CC)[C@@H](C)O)C(C)C [SEQ ID NO: 6] (Ac-IHVTIPADLYDWINK-NH2)
Result string: < 400 nM
